Target: delF508-CFTR (Homo sapiens, UniProt P13569, DEL508-508)
Construct: functional activity of the CFTR channel (Chloride ion transport) in patient derived primary human bronchial epithelial cells; host or cells: patient-derived primary human bronchial epithelial cells (delF508-CFTR)
Sequence (P13569 with tags, fused parts or gaps DEL508-508): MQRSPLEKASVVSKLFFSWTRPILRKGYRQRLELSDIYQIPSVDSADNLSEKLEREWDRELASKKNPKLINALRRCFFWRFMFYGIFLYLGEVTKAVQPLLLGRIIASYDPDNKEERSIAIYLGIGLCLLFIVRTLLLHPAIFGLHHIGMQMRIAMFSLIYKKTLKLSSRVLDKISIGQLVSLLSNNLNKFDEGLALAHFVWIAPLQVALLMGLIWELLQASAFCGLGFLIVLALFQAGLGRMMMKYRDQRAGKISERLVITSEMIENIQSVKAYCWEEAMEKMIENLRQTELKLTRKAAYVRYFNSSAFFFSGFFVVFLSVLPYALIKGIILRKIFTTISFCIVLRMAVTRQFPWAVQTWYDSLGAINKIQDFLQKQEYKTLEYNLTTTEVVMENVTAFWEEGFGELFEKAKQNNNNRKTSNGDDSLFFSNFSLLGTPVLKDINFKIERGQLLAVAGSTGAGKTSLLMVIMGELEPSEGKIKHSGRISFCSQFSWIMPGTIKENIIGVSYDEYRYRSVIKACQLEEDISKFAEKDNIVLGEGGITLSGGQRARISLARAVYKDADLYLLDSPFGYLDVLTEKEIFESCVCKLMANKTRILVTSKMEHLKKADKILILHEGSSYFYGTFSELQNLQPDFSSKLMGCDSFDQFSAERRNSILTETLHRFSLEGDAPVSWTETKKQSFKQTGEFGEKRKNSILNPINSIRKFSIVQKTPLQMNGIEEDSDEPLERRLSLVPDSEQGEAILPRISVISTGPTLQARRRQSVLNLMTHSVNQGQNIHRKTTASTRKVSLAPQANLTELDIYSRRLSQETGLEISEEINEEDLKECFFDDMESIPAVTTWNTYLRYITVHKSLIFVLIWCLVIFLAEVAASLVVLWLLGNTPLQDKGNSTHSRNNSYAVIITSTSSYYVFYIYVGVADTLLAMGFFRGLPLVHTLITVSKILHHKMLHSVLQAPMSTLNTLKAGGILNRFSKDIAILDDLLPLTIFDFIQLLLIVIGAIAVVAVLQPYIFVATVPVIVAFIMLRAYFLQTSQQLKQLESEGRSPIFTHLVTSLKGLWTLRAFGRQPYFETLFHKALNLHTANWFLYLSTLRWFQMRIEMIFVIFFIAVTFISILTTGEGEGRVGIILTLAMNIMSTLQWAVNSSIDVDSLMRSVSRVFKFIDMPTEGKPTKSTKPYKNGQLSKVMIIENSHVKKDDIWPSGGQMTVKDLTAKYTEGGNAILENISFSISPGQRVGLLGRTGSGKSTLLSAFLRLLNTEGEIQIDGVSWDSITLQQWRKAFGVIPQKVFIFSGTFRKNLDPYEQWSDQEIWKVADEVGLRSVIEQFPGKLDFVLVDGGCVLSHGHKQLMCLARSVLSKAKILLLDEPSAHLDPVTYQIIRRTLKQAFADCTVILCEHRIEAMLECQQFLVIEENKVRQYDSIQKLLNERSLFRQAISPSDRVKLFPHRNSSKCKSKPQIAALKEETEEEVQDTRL
Assay: Measurement of delF508-CFTR functional activity in primary human bronchial epithelial cells (HBECs) using Multi-Transepithelial Clamp Circuit (MTECC-24) assay
Format: cell-based
Details: primary CF HBECs; test compound added 24h before assay, in the presence of potentiator; mean of at least two replicates; read-out: MTECC24 CFHBEC- EC50
measuredMetric: EC50 (nM)
Entry rule: numbers only, all in nM.

Here are 2 compounds together with their reported answers.
- O=S(=O)(Nc1ccc(C(F)(F)F)c(-c2ccccc2C2CC2)n1)c1cccc(N2CCNCC2)n1 [Example 148]: 85.4
- Cc1ccc(C(F)(F)F)cc1-c1nc(NS(=O)(=O)c2cccc(N3CC(C)(O)C3)n2)ccc1Cl [Example 212]: 82

Tell me its EC50 given COc1ccc(F)cc1-c1nc(NS(=O)(=O)c2cccc(N3CC(O)C3)n2)ccc1C(F)(F)F [Example 209] as the entry.
139

----------
Quick list: pEC50 per entry.
Target: delF508-CFTR (Homo sapiens, UniProt P13569, DEL508-508)
Construct: functional activity of the CFTR channel (Chloride ion transport) in patient derived primary human bronchial epithelial cells
Assay: Measurement of delF508-CFTR functional activity in primary human bronchial epithelial cells (HBECs) using Multi-Transepithelial Clamp Circuit (MTECC-24) assay
Conditions: primary CF HBECs; test compound added 24h before assay, in the presence of potentiator; mean of at least two replicates; read-out: MTECC24 CFHBEC- EC50
Counter-ions that a name gives are not always drawn.
pEC50 here is simply -log10 of the concentration when that concentration is written in mol/L.

Here are 5 compounds together with their reported answers.
• Cc1cccc(C)c1-c1cc(C(F)(F)F)cc(NS(=O)(=O)c2cccc(N3CCNCC3)n2)n1 [Example 133, Hydrochloride] = 7.01
• Cc1cccc(C)c1-c1nc(NS(=O)(=O)c2cccc(N3CC(O)C3)n2)ccc1Cl = 7.69
• Cc1ccccc1-c1nc(NS(=O)(=O)c2cccc(N3CCC[C@@H](N)C3)n2)ccc1C(F)(F)F [Example 102, Hydrochloride] = 6.87
• Cc1cccc(C)c1-c1nc(NS(=O)(=O)c2cccc(NC3CCOCC3)n2)ccc1Cl = 8.06
• Cc1cccc(C)c1-c1nc(NS(=O)(=O)c2cccc(O[C@H]3CC[C@@H](C(=O)O)CC3)n2)ccc1Cl = 7.71

Tell me its pEC50 given O=S(=O)(Nc1ccc(C(F)(F)F)c(-c2ccccc2C(F)(F)F)n1)c1cccc(N2CC(O)C2)n1 as the entry.
8.31

Tell me its pEC50 given Cc1ccccc1-c1nc(NS(=O)(=O)c2cccc(N3CCNC[C@@H]3C)n2)ccc1C(F)(F)F [Example 170, Hydrochloride] as the entry.
6.76

Tell me its pEC50 given CCCC1(C(=O)O)CCCN(c2cccc(S(=O)(=O)Nc3ccc(C(F)(F)F)c(-c4ccccc4CC)n3)n2)C1 (centres unmarked) as the entry.
9.09

----------
Target: horseradish peroxidase (HRP) tagged delF508-CFTR (Homo sapiens, UniProt P13569, DEL508-508)
Construct: expressed in transfected cells
Sequence (P13569 with tags, fused parts or gaps DEL508-508): as above
Experiment: Measurement of delF508-CFTR-HRP surface expression in CFBE41o- cells
Format: cell-based
Settings: CFBE41o- cells; mean of at least two replicates; read-out: DelF508-CFTR-HRP EC50
Protocol: Measurement of delF508-CFTR-HRP Surface Expression in CFBE41o-Cells This assay quantifies the cell surface expressions of the mutant CFTR channel using an extracellular HRP tag. […] The median activity for the lowest concentration of the compounds on each assay plate was calculated and this value was used to normalize the signal for each well on the respective plate. […] The median value was determined and used to calculate compound activities as described below. […]
Quick list: EC50 per entry.
Entry rule: numbers only, all in µM.

* Cc1ccc(Cl)cc1-c1nc(NS(=O)(=O)c2cccc(N3CCC(C)(C(=O)O)CC3)n2)ccc1C(F)(F)F [Example 451] | 2.68
* CC(C)COc1ccccc1-c1nc(NS(=O)(=O)c2cccc(N3CCCC(C)(C(=O)O)C3)n2)ccc1Cl (stereo not drawn) [Example 400] | 1.1

Turning to the following compound.
Tell me its EC50 given CC(C)Oc1ccc(Cl)cc1-c1nc(NS(=O)(=O)c2cccc(N3CCCC(C)(C(=O)O)C3)n2)ccc1C(F)(F)F (stereo not drawn) [Example 433] as the entry.
0.436
